biological target: T1, Cynomolgus monkey BCMA (cynomolgus monkey); assay: SPR, IgG immobilised, cyno BCMA analyte
T1 construct: Soluble analyte in SPR; also called cyBCMA; Cyno BCMA
Hi there, I'd appreciate the recorded koff for every entry that follows.
Give bare numbers, in s⁻¹.

| BINDER | koff, s⁻¹ |
| --- | --- |
| COMBO_Rd4_6nM_C22 (antibody, V domains shown, IgG) VH: EVQLLESGGGLVQPGGSLRLSCAASGFTFSSYAMNWVRQAPGKGLEWVSACLDSGGSTYYADSVKGRFTISRDNSKNTLYLQMNSLRAEDTAVYYCARYWPMDSWGQGTLVTVSS VL: EIVLTQSPGTLSLSPGERATLSCRASQSVSSSYLAWYQQKPGQAPRLLMYDASIRATGIPDRFSGSGSGTDFTLTISRLEPEDFAVYYCQQYQGWPLTFGQGTKVEIK | 0.00165 |

Next item in the queue.
INPUT: Fill in the blank: the reported koff of A02_Rd4_0.6nM_C09 (antibody, V domains shown, IgG) VH: EVQLLESGGGLVQPGGSLRLSCAASGFTFSSYAMNWVRQAPGKGLEWVSAISDSGGSMWYADSVKGRFTISRDNSKNTLYLQMNSLRAEDTAVYYCARYWPMSLWGQGTLVTVSS VL: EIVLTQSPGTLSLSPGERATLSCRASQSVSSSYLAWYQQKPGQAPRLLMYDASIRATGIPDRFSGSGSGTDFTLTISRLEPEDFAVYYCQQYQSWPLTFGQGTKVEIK is ____.
OUTPUT: 0.000174
